experiment: in vitro; conditions: monkey, Vero cells
Description: Selectivity index, ratio of IC50 for african green monkey (Cercopithecus aethiops) Vero cells to IC50 for chloroquine-sensitive Plasmodium falciparum D6
Below, each entry is listed alongside its reported selectivity ratio.

molecule: CC[C@H]1CN2CCc3cc(O)c(OC)cc3[C@@H]2C[C@@H]1C[C@@]1(O)NCCc2cc(O)c(OC)cc21 [KLUGINE]
selectivity ratio: > 265
//
molecule: CC[C@H]1CN2CCc3cc(OC)c(OC)cc3[C@@H]2C[C@@H]1C[C@@H]1NCCc2cc(O)c(O)cc21
selectivity ratio: > 7
//
molecule: CC[C@H]1CN2CCc3cc(OC)c(OC)cc3[C@@H]2C[C@@H]1C[C@H]1NCCc2cc(O)c(OC)cc21 [CEPHAELINE]
selectivity ratio: 132
//
molecule: CC[C@H]1CN2CCc3cc(OC)c(OC)cc3[C@@H]2C[C@@H]1C[C@H]1NCCc2cc(OC)c(OC)cc21 [EMETINE]
selectivity ratio: 6
//
molecule: C[C@@H]1CC[C@H]2[C@@H](C)C(=O)O[C@@H]3O[C@@]4(C)CC[C@@H]1[C@]32OO4 [ARTEMISININ]
selectivity ratio: > 699
//
molecule: CC[C@H]1CN2CCc3cc(OC)c(OC)cc3[C@@H]2C[C@@H]1C[C@@H]1NCCc2cc(O)c(OC)cc21 [ISOCEPHAELINE]
selectivity ratio: > 54
